Below is a list of entries, each paired with its recorded kon value.
# subjectOfTest: human PDL1 protein (Octet assay) (human, UniProt Q9NZQ7 19-238)
# Sequence (Q9NZQ7 19-238 limits assumed): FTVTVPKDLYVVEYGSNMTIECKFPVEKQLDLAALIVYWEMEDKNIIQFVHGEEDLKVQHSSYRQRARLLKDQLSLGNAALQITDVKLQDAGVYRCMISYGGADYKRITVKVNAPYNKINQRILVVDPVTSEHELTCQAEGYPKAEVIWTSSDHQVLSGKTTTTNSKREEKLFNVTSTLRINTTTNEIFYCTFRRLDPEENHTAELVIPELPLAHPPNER
# protocolSummary: Octet; antibody on sensor, PDL1 protein in solution
Give the number; M⁻¹ s⁻¹ is assumed, so skip it.

{"binder": "Anti-PDL1/SIRPα bispecific antibody ES019-079 (bispecific antibody, not shown: CL; linker and Fc; CH1) light: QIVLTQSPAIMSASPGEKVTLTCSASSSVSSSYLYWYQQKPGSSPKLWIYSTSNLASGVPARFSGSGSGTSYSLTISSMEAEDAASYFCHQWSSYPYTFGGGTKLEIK heavy (part 1 of 2): EVQLVESGGGLVQAGGSLRLSCAASGFTFSSHAMSWVRQAPGKGLEWVSDIDTSGTTTDYADSVKGRFTISRDNAKNTLYLQMNSLKPEDTAVYYCAKGPREATDIRSWGQGTQVTVSS heavy (part 2 of 2): GGGGSGGGGSGGGGSEVQLQQSGAELVKPGASVKLSCTASGFNIKDYYMHWVKQRTEQGLEWIGRIDPEDGETKYAPKFQGKATITADTSSNTAYLQLSSLTSEDTAVYYCDRGLAYWGQGTLVTVSA", "reportedProperty": "kon", "recordedValue": 588000}

Let us examine a further case.
Per the record, Anti-PDL1/SIRPα bispecific antibody ES019-026 (bispecific antibody, not shown: small tags and cut ends; a dimerising Fc or GST) light (part 1 of 2): EVQVVESGGGLVQSGGSLKLSCAGSGFTESAGFMVWHRQVPGKERELVALIATPSGSTNYADSVKGRFTISRDNGKNTVYLQMNSLKPEDTAVYYCNIRGYWGQGTLVTVSS light (part 2 of 2): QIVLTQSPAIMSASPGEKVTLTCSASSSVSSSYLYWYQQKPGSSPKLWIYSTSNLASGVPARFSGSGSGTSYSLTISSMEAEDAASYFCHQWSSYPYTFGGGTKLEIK heavy: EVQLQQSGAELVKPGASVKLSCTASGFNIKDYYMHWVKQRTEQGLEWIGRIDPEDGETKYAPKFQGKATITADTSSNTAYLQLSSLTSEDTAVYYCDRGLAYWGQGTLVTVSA has kon of 1.56e+06
